biological target: brefeldin A-inhibited guanine nucleotide-exchange protein 3 (BIG3) (human, UniProt Q5TH69 1-2177); assay: cell-based or functional assay
Sequence (Q5TH69 whole entry): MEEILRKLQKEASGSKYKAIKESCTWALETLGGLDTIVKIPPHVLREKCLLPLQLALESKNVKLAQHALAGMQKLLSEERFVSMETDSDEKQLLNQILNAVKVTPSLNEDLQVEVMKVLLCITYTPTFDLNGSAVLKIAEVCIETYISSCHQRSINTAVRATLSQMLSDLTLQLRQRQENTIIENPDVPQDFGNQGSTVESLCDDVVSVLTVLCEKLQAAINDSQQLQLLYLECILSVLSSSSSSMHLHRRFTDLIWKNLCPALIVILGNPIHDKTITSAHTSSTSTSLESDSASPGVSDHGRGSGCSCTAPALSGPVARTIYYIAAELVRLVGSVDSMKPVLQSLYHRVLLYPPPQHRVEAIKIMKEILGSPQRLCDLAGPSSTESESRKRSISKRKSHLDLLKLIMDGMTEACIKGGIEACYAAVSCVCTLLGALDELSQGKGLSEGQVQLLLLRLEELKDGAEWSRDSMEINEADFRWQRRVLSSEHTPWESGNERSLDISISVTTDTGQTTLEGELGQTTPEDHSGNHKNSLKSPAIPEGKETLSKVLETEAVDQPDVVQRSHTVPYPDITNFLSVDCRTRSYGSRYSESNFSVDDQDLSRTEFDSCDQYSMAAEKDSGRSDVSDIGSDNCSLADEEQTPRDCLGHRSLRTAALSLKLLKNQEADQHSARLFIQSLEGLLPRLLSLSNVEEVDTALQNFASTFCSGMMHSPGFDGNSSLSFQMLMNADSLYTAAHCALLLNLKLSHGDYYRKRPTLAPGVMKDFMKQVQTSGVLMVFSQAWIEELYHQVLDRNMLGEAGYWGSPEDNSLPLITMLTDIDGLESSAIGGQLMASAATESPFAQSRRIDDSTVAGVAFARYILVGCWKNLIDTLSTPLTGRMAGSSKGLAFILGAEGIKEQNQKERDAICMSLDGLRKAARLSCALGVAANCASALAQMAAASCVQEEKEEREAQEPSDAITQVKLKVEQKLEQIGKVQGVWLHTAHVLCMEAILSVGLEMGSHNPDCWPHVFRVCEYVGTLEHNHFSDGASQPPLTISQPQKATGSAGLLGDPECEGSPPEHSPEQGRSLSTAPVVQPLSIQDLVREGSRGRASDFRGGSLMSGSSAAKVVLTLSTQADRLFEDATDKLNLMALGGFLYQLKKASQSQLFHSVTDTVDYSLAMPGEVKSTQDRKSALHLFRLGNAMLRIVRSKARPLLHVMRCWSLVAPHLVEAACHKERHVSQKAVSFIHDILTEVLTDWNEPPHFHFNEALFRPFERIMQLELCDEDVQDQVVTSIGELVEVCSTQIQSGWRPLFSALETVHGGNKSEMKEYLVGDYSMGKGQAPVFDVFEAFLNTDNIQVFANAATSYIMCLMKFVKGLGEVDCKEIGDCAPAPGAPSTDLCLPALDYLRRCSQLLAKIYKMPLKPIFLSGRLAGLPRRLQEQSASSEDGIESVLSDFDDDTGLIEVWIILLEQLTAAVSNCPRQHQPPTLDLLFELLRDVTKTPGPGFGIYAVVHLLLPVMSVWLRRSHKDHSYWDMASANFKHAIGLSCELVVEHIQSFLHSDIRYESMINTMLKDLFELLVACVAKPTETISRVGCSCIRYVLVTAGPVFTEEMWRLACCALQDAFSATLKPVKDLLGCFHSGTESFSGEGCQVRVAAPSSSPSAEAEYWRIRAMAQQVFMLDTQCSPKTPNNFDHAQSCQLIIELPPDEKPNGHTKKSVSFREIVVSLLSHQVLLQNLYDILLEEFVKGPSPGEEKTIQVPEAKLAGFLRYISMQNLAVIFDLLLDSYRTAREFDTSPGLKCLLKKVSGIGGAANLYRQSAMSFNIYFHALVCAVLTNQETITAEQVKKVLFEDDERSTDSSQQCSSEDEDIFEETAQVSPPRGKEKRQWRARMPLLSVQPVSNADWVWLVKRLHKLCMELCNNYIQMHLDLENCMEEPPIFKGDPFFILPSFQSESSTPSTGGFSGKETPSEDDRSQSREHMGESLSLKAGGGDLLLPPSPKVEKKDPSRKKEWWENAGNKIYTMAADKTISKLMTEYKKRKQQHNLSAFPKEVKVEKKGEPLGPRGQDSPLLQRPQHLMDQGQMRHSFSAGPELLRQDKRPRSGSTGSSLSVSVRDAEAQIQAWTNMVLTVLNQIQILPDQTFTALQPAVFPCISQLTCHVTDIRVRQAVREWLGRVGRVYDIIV
No end group written: not given here.
REPORTED_PROPERTY: suppression ratio of estrogen-dependent growth of MCF-7, 10 µM, 24 h

Solved entries (count: 2):
BINDER	RESULT
QYPIAYDIRARPRKI (not fully specified (C-terminus)) [alanine-mutated PHB2 peptide No. 71]	38%
EGGHRAIFFNRIGG (not fully specified (C-terminus)) [PHB2 sequence-derived peptide No. 82]	59%

Now examine the next entry.
Returns the measured suppression ratio of estrogen-dependent growth of MCF-7, 10 µM, 24 h for the input binder. Input: TVEGGHRAIRRRRRRRR-NH2 [PHB2 sequence-derived peptide No. 2 (42-50aa)]
20%

These entries and their values trace back to patent US20220098256A1.
